Cited source for all entries: ChEMBL document CHEMBL4699492

assay: Antiproliferative activity against HLF1 cells assessed as reduction in TGFbeta-induced cell proliferation measured after 48 hrs by CCK8 assay; type: functional, cell-based; settings: Homo sapiens, HLF1, 48 h
READOUT: IC50 (µM)
Numbers only, in µM.

1) Cc1nn(-c2ccccc2)c2nc(OCc3ccccc3F)c(-c3nc(N)c(NC(=O)OC4CCCC4)c(N)n3)cc12
63.4
2) Cc1nn(-c2ccccc2)c2nc(OCc3ccccc3F)c(-c3nc(N)c(N4CCOC4=O)c(N)n3)cc12
49.7
3) Cc1ccccc1COc1nc2c(cc1-c1nc(N)cc(N)n1)c(C)nn2-c1ccccc1
38.5

Provide IC50 values for the following items, in order.
1. Cc1nn(-c2ccccc2)c2nc(OCc3ccccc3F)c(-c3nc(N)c(N)c(N)n3)cc12
2. Cc1nn(-c2ccccc2)c2nc(OCc3ccccc3F)c(-c3nc(N)cc(N)n3)cc12
3. Cc1nn(-c2ccccc2)c2nc(OCc3ccc(F)cc3)c(-c3nc(N)cc(N)n3)cc12
4. Cc1cccc(COc2nc3c(cc2-c2nc(N)cc(N)n2)c(C)nn3-c2ccccc2)c1
5. Cc1nn(-c2ccccc2)c2nc(OCc3ccccc3)c(-c3nc(N)cc(N)n3)cc12

[37.2, 55.6, 55.3, 41.9, 52.8]

====

test system: Aorta; test: Vasodilating activity in Sprague-Dawley rat aortic rings assessed as reduction in phenylephrine-induced contractions; type: functional, tissue-based
READOUT: pEC50
Answers are plain numbers, as −log10 of the molar value.

The cases that follow already have their pEC50 on record.
1) Cc1nn(-c2ccccc2)c2nc(OCc3cccc(F)c3)c(-c3nc(N)cc(N)n3)cc12
6.44
2) Cc1cccc(COc2nc3c(cc2-c2nc(N)cc(N)n2)c(C)nn3-c2ccccc2)c1
6.00
3) Cc1nn(-c2ccccc2)c2nc(OCc3ccccc3F)c(-c3nc(N)c4c(n3)[nH]c(=O)n4C)cc12
5.31

May I ask what pEC50 has been recorded for `Cc1nn(-c2ccccc2)c2nc(OCc3ccc(C(F)(F)F)cc3)c(-c3nc(N)cc(N)n3)cc12` ?
5.80

====

tested on: Aorta; assay: Vasodilating activity in Sprague-Dawley rat aortic rings assessed as reduction in phenylephrine-induced contractions; format: functional, tissue-based
READOUT: log10 of EC50 (log10 of the value in µM)
Answers are given as log10 of EC50 in µM.

In the examples that follow, each entry is paired with its recorded log10 of EC50.
1. COC(=O)N(C)c1c(N)nc(-c2nn(Cc3ccccc3F)c3ncccc23)nc1N
-0.74
2. COC(=O)Nc1c(N)nc(-c2cc3c(C)nn(-c4ccccc4)c3nc2OCc2ccccc2F)nc1N
0.76

Please state, for each entry, its recorded log10 of EC50.
1. Cc1nn(-c2ccccc2)c2nc(OCc3ccccc3F)c(-c3nc(N)c(N)c(N)n3)cc12
2. Cc1nn(-c2ccccc2)c2nc(OCc3ccccc3F)c(-c3nc(N)cc(N)n3)cc12
3. Cc1nn(-c2ccccc2)c2nc(OCc3ccccc3F)c(-c3nc(N)c(N4CCOCC4)c(N)n3)cc12
4. Cc1nn(-c2ccccc2)c2nc(OCc3ccccc3)c(-c3nc(N)cc(N)n3)cc12

[-0.02, 0.34, 0.91, 1.03]

====

experiment: Protein binding in human plasma; assay type: ADME, cell-free; settings: read-out: PPB (converted)
READOUT: fraction unbound
Answers are plain numbers.

Please give the measured fraction unbound for this molecule: `Cc1ccccc1COc1nc2c(cc1-c1nc(N)cc(N)n1)c(C)nn2-c1ccccc1`
0.002

====

experiment: Half life in Sprague-Dawley rat liver microsomes at 1.5 uM preincubated for 5 mins followed by NADPH addition and measured up to 45 mins by LC-MS/MS analysis; assay type: ADME, Microsome; settings: time <=50 min
READOUT: half-life at 1.5 µM (min)
Numbers only, in min.

What does the record list as half-life at 1.5 µM for `Cc1ccccc1COc1nc2c(cc1-c1nc(N)cc(N)n1)c(C)nn2-c1ccccc1` ?
10

====

experiment: Antiproliferative activity against HLF1 cells measured after 48 hrs under hypoxic condition by CCK8 assay; assay type: functional, cell-based; conditions: Homo sapiens, HLF1, 48 h
READOUT: pIC50
Numbers only, as −log10 of the molar value.

Fill blank: measured pIC50 of the molecule `Cc1ccccc1COc1nc2c(cc1-c1nc(N)cc(N)n1)c(C)nn2-c1ccccc1` is ____.
4.46

====

Would you mind telling me the reported IC50 of each entry?
experiment: Antiproliferative activity against HPASMC assessed as reduction in TGFbeta-induced cell proliferation measured after 48 hrs by CCK8 assay; format: functional, tissue-based; details: Homo sapiens, Pulmonary Artery Smooth Muscle Cells
Answers are plain numbers, in µM.

Worked set:
1. Cc1ccc(COc2nc3c(cc2-c2nc(N)cc(N)n2)c(C)nn3-c2ccccc2)cc1
89.4
2. Cc1nn(-c2ccccc2)c2nc(OCc3ccccc3F)c(-c3nc(N)cc(N)n3)cc12
59.3
3. Cc1nn(-c2ccccc2)c2nc(OCc3ccccc3F)c(-c3nc(N)c4c(n3)[nH]c(=O)n4C)cc12
23.2
4. Cc1nn(-c2ccccc2)c2nc(OCc3ccc(C(F)(F)F)cc3)c(-c3nc(N)cc(N)n3)cc12
20.4
5. Cc1nn(-c2ccccc2)c2nc(OCc3ccccc3F)c(-c3nc(N)c(N4CCCCC4)c(N)n3)cc12
53
6. Cc1cccc(COc2nc3c(cc2-c2nc(N)cc(N)n2)c(C)nn3-c2ccccc2)c1
32
7. Cc1nn(-c2ccccc2)c2nc(OCc3cccc(F)c3)c(-c3nc(N)cc(N)n3)cc12
68.4

Please examine the following record next.
Consider the compound shown here: `CCCCOC(=O)Nc1c(N)nc(-c2cc3c(C)nn(-c4ccccc4)c3nc2OCc2ccccc2F)nc1N` What is its recorded IC50?
21.7

====

assay: Antiproliferative activity against HLF1 cells assessed as reduction in TGFbeta-induced cell proliferation measured after 48 hrs by CCK8 assay; assay type: functional, cell-based; details: Homo sapiens, HLF1, 48 h
READOUT: IC50

Use these answered entries as a reference point.
1. Cc1nn(-c2ccccc2)c2nc(OCc3ccccc3F)c(-c3nc(N)c(N4CCOCC4)c(N)n3)cc12
> 100 µM
2. Cc1ccc(COc2nc3c(cc2-c2nc(N)cc(N)n2)c(C)nn3-c2ccccc2)cc1
> 100 µM
3. Cc1nn(-c2ccccc2)c2nc(OCc3ccccc3F)c(-c3nc(N)c4c(n3)[nH]c(=O)n4C)cc12
> 100 µM
4. Cc1nn(-c2ccccc2)c2nc(O)c(-c3nc(N)cc(N)n3)cc12
> 100 µM
5. Cc1nn(-c2ccccc2)c2nc(OCc3ccccc3F)c(-c3nc(N)c(N(C)C)c(N)n3)cc12
> 100 µM
6. COC(=O)Nc1c(N)nc(-c2cc3c(C)nn(-c4ccccc4)c3nc2OCc2ccccc2F)nc1N
> 100 µM
7. CC(=O)Nc1c(N)nc(-c2cc3c(C)nn(-c4ccccc4)c3nc2OCc2ccccc2F)nc1N
> 100 µM
8. Cc1nn(-c2ccccc2)c2c1cc(-c1nc(N)c(N3CCOCC3)c(N)n1)c(=O)n2Cc1ccccc1F
> 100 µM

Would you mind giving IC50 for every molecule in the list below?
1. CCCCOC(=O)Nc1c(N)nc(-c2cc3c(C)nn(-c4ccccc4)c3nc2OCc2ccccc2F)nc1N
2. COC(=O)N(C)c1c(N)nc(-c2nn(Cc3ccccc3F)c3ncccc23)nc1N [RIOCIGUAT]
3. Cc1nn(-c2ccccc2)c2nc(OCc3ccccc3F)c(-c3nc(N)c(N4CCCC4)c(N)n3)cc12
4. Cc1nn(-c2ccccc2)c2nc(OCc3cccc(F)c3)c(-c3nc(N)cc(N)n3)cc12
5. Cc1nn(-c2ccccc2)c2nc(OCc3ccc(C(F)(F)F)cc3)c(-c3nc(N)cc(N)n3)cc12
6. Cc1nn(-c2ccccc2)c2nc(OCc3ccccc3F)c(-c3nc(N)c(N4CCCCC4)c(N)n3)cc12
7. c1cc(-c2cnn3cc(-c4ccc(OCCN5CCCCC5)cc4)cnc23)ccn1 [DORSOMORPHIN]

["52.8 µM", "> 100 µM", "> 100 µM", "67.7 µM", "31 µM", "> 100 µM", "> 100 µM"]

====

Please respond with reported EC50 for every item in the list.
test system: Aorta; assay: Vasodilating activity in Sprague-Dawley rat aortic rings assessed as reduction in phenylephrine-induced contractions; format: functional, tissue-based

Some entries whose results are on file:
1) Cc1nn(-c2ccccc2)c2nc(OCc3ccccc3F)c(-c3nc(N)c(N4CCOC4=O)c(N)n3)cc12
> 100 µM
2) CCCCOC(=O)Nc1c(N)nc(-c2cc3c(C)nn(-c4ccccc4)c3nc2OCc2ccccc2F)nc1N
> 100 µM

# next molecule below
Item `Cc1nn(-c2ccccc2)c2nc(OCc3ccccc3F)c(-c3nc(N)c(NC(=O)OC4CCCC4)c(N)n3)cc12` has what recorded EC50?
> 100 µM
